Tested on: CCRIS mutagenicity, Ames/micronucleus/aberration tests
assay-notes: CCRIS mutagenicity studies
settings: Test System: AMES SALMONELLA TYPHIMURIUM; Strain/Indicator: TA97; Metabolic Activation: RAT, LIVER, S-9, AROCLOR 1254; Method: PREINCUBATION
Active and inactive are the calls of the source. How the calls were made is not given here.
Please answer using one outcome listed in active, inactive

# example entries with known answers
compound	assigned-category
O.O.O=C([O-])[C@H](O)[C@@H](O)[C@H](O)[C@H](O)CO.O=C([O-])[C@H](O)[C@@H](O)[C@H](O)[C@H](O)CO.[Fe+2]	inactive
Cc1[nH]ccc2c1[nH]c1cc(=O)ccc12	inactive
N[C@@H](CC(=O)O)C(=O)O	inactive

Which outcome did this test record for the compound O=S(O)O ?
inactive

Proceed to CCCCOC(=O)CCC
inactive

Try this compound next: C=CCN=C=S
inactive

And for Cc1ncc[nH]1 ?
inactive

// next record CCOC(=O)CC(C)C
inactive

Let us now turn to COc1cc(C(C)=O)ccc1O
inactive

# iterate: O=c1ccn([C@H]2C[C@H](O)[C@@H](CO)O2)c(=O)[nH]1
inactive

Ok, now O=C1NCCN1c1ncc([N+](=O)[O-])s1
active

What do we get for O=C1O[C@H]([C@H](O)CO)C(O)=C1O ?
inactive

Check NCC(=O)O too.
inactive

Also, Nc1ccc(Cl)cc1 please.
inactive

Note, next up: CCc1cn([C@H]2C[C@H](O)[C@@H](CO)O2)c(=O)[nH]c1=O
inactive

And CC(N)[13C](=O)O (configuration not stated) ?
inactive

Moving on to Cc1cc(-c2ccc(N)c(C)c2)ccc1N
inactive

All values here come from PubChem BioAssay AID1259407.
